- ASSAYED_SYSTEM: human Adenosine A2b receptor (Homo sapiens (Human), UniProt P29275)
- Sequence (P29275 whole entry): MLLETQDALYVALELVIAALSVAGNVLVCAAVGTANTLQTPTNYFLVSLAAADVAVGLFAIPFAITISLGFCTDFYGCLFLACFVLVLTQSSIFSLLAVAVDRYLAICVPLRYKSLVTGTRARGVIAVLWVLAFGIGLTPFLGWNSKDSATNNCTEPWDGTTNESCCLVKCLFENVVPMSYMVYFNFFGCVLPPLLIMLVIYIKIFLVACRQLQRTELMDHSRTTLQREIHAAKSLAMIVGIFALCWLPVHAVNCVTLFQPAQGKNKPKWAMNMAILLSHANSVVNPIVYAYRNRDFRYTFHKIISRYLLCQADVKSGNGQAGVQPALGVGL
- ASSAY_SUMMARY: Adenosine receptor TR-FRET binding assay (A2b)
- ASSAY_SETUP: TR-FRET, inhibition of binding of 30 nM CA200645, CHO cell membranes
Counter-ions that a name gives are not always drawn.
Kindly supply the reported Ki values for the records listed here.
Numbers only; they are read as nM.

Q: Form field: Ki recorded for Cc1cc(-c2sc(NC(=O)N3CCC(N4CCOCC4)C3)nc2-c2cccc(C#N)c2)cc(C)n1 (stereo not shown) [Example 6.84, hemi formate salt] with human Adenosine A2b receptor (Homo sapiens (Human), UniProt P29275) (enter value)
Ans: 8.4

Q: Requested read-out Ki, target or system human Adenosine A2b receptor (Homo sapiens (Human), UniProt P29275), entry Cc1cc(-c2sc(NC(=O)N3CCC(C)(C#N)CC3)nc2-c2cccc(C#N)c2)cc(Cl)n1
Ans: 0.9

Q: Value wanted: Ki (human Adenosine A2b receptor (Homo sapiens (Human), UniProt P29275)) of entry CCc1cc(-c2sc(NC(=O)N3CC4(COC4)C3)nc2-c2cccc(C#N)c2)cc(C)n1
Ans: 0.8

Q: Form: Entry = Cc1cc(-c2sc(NC(=O)N3CCO[C@H](CO)C3)nc2-c2cccc(C#N)c2)cc(C)n1 | System = human Adenosine A2b receptor (Homo sapiens (Human), UniProt P29275) | Ki = ____
Ans: 1

Q: Item Cc1cc(-c2sc(NC(=O)N3CCC(C)(C#N)CC3)nc2-c2cccc(C#N)c2)cc(C(C)(C)O)n1 with human Adenosine A2b receptor (Homo sapiens (Human), UniProt P29275) - Ki?
Ans: 3.1

Q: API: value(readout= Ki, system= human Adenosine A2b receptor (Homo sapiens (Human), UniProt P29275), query= Cc1cc(-c2sc(NC(=O)N3CCN[C@@H](C(F)(F)F)C3)nc2-c2cccc(C#N)c2)cc(C)n1 )
Ans: 8

Q: Write down the reported Ki of Cc1cc(-c2sc(NC(=O)N3CC(N4CCCC4)C3)nc2-c2cccc(C#N)c2)cc(C)n1 , test system: human Adenosine A2b receptor (Homo sapiens (Human), UniProt P29275).
Ans: 23
